Test: qHTS Validation assay for Inhibitors of Plasmodium falciparum Dd2 growth in vitro; also: nearly all actives have a fitted effect of over 70% in size
Details: P. falciparum Dd2 in RBCs, SYBR Green growth, 72 h; series mostly up to 28.7 µM
From the text: Malaria, a parasitic disease spread to humans through the bite of a Plasmodium infected Anopheles mosquito, continues to be a global health burden affecting millions of people, with an estimated 228 million cases and 405,000 deaths in 2018. Concerns about safety and limitations of current antimalarial treatments strongly emphasize the need to develop new therapeutic options. […]
About 1,600 (39%) of roughly 4,100 compounds were called active. Roughly 25% stayed inconclusive and do not appear here. Calls follow the shape of the dose curve; as a rule, active = well fitted inhibition curve with a large enough effect; inconclusive = small, poorly fitted or top-dose-only effect; inactive = no such curve, though single readings can be large or run the other way. The list shows a part of the results.
Hi! Could you answer with just one of these? YES (active), NO (inactive)

State the result this test recorded for CC(C)OCc1cc(CN2CCN(c3cccc(C(F)(F)F)c3)CC2)c(O)c2ncccc12 .
YES

State the result this test recorded for OC(CNC1CCCCCC1)COc1cccc2ccccc12 (stereo not given) .
YES

State the result this test recorded for CCn1nccc1C(=O)N1CCCC(n2cc(-c3nc(-c4ccccc4)no3)nn2)C1 (stereo not given) .
NO

State the result this test recorded for CCOc1cc(C2NC(=O)c3c(sc4c3CCN(C)C4)N2)ccc1OC(=O)c1ccccc1Cl (stereo not given) .
NO

State the result this test recorded for CCOc1ccc(-n2c(SCC(N)=O)nc3sc4c(c3c2=O)CCN(C)C4)cc1 .
YES

====

Experiment: qHTS Validation assay for Inhibitors of Plasmodium falciparum Dd2 growth in vitro; also: nearly all actives have a fitted effect of over 70% in size
Details: P. falciparum Dd2 in RBCs, SYBR Green growth, 72 h; series mostly up to 28.7 µM
About 1,600 (39%) of roughly 4,100 compounds were called active. Not shown: some 25% with an inconclusive outcome. The call rests on the fitted dose curve; in most records, active means well fitted inhibition curve with a large enough effect; inconclusive means small, poorly fitted or top-dose-only effect; inactive means no such curve, though single readings can be large or run the other way. This is one part of the list.
Hi! Could you answer with just one of these? 1 = active, 0 = inactive

The following molecules have reported results that may help.
State the result this test recorded for O=C(NCc1nc2ccccc2[nH]1)C1=C[C@@H](c2ccccc2)C[C@@H](OCc2ccc(CO)cc2)O1 .
0

State the result this test recorded for COc1ccc(Nc2cc(O)c3ncccc3c2)cc1 .
1

State the result this test recorded for COc1cc(OC)c(NC(=O)n2ncc3cc(Cl)ccc32)cc1Cl .
0

State the result this test recorded for Oc1cc(Nc2ccccc2)cc2cccnc12 .
1

State the result this test recorded for COc1ccc(N2Cc3c(ncnc3N3CCN(Cc4ccccc4)CC3)N(C)CC2=O)cc1 .
0

Now take the following molecule into account.
State the result this test recorded for CCCCOCc1cc(CN2CCN(c3cccc(Cl)c3)CC2)c(O)c2ncccc12 .
1

====

Assay: qHTS Validation assay for Inhibitors of Plasmodium falciparum Dd2 growth in vitro; also: nearly all actives have a fitted effect of over 70% in size; also: potency is read from the fitted curve at half-maximal effect
Details: P. falciparum Dd2 in RBCs, SYBR Green growth, 72 h; series mostly up to 28.7 µM
About 1,600 (39%) of roughly 4,100 compounds were called active. About 25% were inconclusive and are not listed. The list shows a part of the results.
assay readout: Potency

Worked cases, Potency given:
Please fill in: Potency reported for Cn1c(=S)[nH]c2sc3c(c2c1=O)CCC(C(C)(C)C)C3 (stereo unspecified) = 5310 nM (active)

Please fill in: Potency reported for O=C(Nc1ccc([N+](=O)[O-])cc1)Nc1ccc(OC(F)F)c(Cl)c1 = 2660 nM (active)

Please fill in: Potency reported for CCOCCCn1c(SCC(=O)NCCCOC)nc2c(sc3ccccc32)c1=O = inactive

Please fill in: Potency reported for C=C(C)CSc1nc2sc3c(c2c(=O)n1C1CCCCC1)CCN(C)C3 = 2370 nM (active)

Please fill in: Potency reported for CCCN1CCc2c(sc3nc(SC)n(-c4ccccc4)c(=O)c23)C1 = 2660 nM (active)

I need Potency for every entry listed below, if you could help.
1. CC(C)Sc1nc2sc3c(c2c(=O)n1Cc1ccccc1)CCCC3
2. COCC1CN(C)CC12CCN(C(=O)CC1=CCCCC1)CC2 (stereo unspecified)
3. CCNc1ncnc2sc3c(c12)CCN(Cc1ccc[nH]1)C3
4. CN(C)c1ncnc2sc3c(c12)CCN(Cc1ccc2cc[nH]c2c1)C3
5. Cc1noc(C)c1-c1cc2c(cc(C)n2C)c(NCCN(C)C)n1

1: inactive; 2: inactive; 3: inactive; 4: inactive; 5: inactive

Please fill in: Potency reported for CCn1c(SCC(=O)NCCc2ccccc2)nc2sc3c(c2c1=O)CCN(C)C3 = 5310 nM (active)

====

Assay: qHTS Validation assay for Inhibitors of Plasmodium falciparum Dd2 growth in vitro; also: nearly all actives have a fitted effect of over 70% in size
Settings: P. falciparum Dd2 in RBCs, SYBR Green growth, 72 h; series mostly up to 28.7 µM
The campaign covered roughly 4,100 compounds. About 1,600 (39%) were called active. About 25% were inconclusive and are not listed. Calls come from the whole dose curve; as a rule, active = well fitted inhibition curve with a large enough effect; inconclusive = small, poorly fitted or top-dose-only effect; inactive = no such curve, though single readings can be large or run the other way. The list shows a part of the results.
Hi! Could you answer with just one of these? active, inactive

State the result this test recorded for CNC(=O)N1CCc2c(sc3ncnc(N(C)C)c23)C1 .
inactive

State the result this test recorded for Cn1c(=O)c2ccnn2c2ccc(C(=O)NCCN3CCC(N4CCCCC4)CC3)cc21 .
inactive

State the result this test recorded for Cc1ccc(NC(=O)N2CCC(N3C(=O)C4(CCCCC4)C3c3ccncc3)CC2)cc1C (stereo unspecified) .
active

State the result this test recorded for CCc1ccc(NC(=O)N2CC(C(=O)N(C)C)C3(CCOCC3)C2)cc1 (stereo unspecified) .
inactive

State the result this test recorded for Cc1noc(C)c1-c1cc2c(cc(-c3ccccc3)n2C)c(-c2cccnc2)n1 .
active

Continuing:
State the result this test recorded for Cc1nc2cc(F)ccc2n1C1CCN(C(=O)c2c(F)cccc2F)CC1 .
active

State the result this test recorded for O=C1NCN(c2ccccc2)C12CCN(CCCC(c1ccc(F)cc1)c1ccc(F)cc1)CC2 .
active

State the result this test recorded for CCC(C)NC(=O)c1ccccc1NC(=O)C1COc2ccccc2O1 (stereo unspecified) .
active

State the result this test recorded for Cc1noc(-c2ccn3c(CNC(=O)c4ccncc4)nnc3c2)n1 .
inactive

State the result this test recorded for COc1ccc(-c2nc3c(c(SCc4ccc(Br)cc4)n2)Cc2c(CO)cnc(C)c2O3)cc1 .
active

====

Test: qHTS Validation assay for Inhibitors of Plasmodium falciparum Dd2 growth in vitro; also: nearly all actives have a fitted effect of over 70% in size; also: potency is read from the fitted curve at half-maximal effect
Settings: P. falciparum Dd2 in RBCs, SYBR Green growth, 72 h; series mostly up to 28.7 µM
Hit rate of the full screen: of about 4,100 compounds, about 1,600 (39%) were called active. Roughly 25% stayed inconclusive and do not appear here. The list shows a part of the results.
assay readout: Potency

Worked cases, Potency given:
Please fill in: Potency reported for CN(C)C(=O)c1cccnc1OC1CCN(CCc2ccccc2)CC1 = inactive

Please fill in: Potency reported for COc1ccc(-c2nc3ccccc3o2)cc1NC(=O)COc1c(C)cc(Cl)cc1Cl = inactive

Please fill in: Potency reported for CN1c2cc(C(=O)NCc3nc4ccccc4n3C)ccc2C(=O)N2CCCCCC21 (stereo unspecified) = inactive

Please fill in: Potency reported for Cc1ccc(Nc2cc(=O)oc3ccccc23)c(C)c1 = inactive

I need Potency for every entry listed below, if you could help.
1. COc1ccc(C)cc1NCc1cc(=O)oc2cc(-c3ccccc3)c(O)cc12
2. Cc1cc([N+](=O)[O-])ccc1NC(=O)COc1nsnc1N1CCOCC1

1. 5.31 µM (active)
2. 6.68 µM (active)

====

Assay: qHTS Validation assay for Inhibitors of Plasmodium falciparum Dd2 growth in vitro; also: nearly all actives have a fitted effect of over 70% in size
Details: P. falciparum Dd2 in RBCs, SYBR Green growth, 72 h; series mostly up to 28.7 µM
Screen size: about 4,100 compounds; about 1,600 (39%) were called active. About 25% were inconclusive and are not listed. The call rests on the fitted dose curve; in most records, active means well fitted inhibition curve with a large enough effect; inconclusive means small, poorly fitted or top-dose-only effect; inactive means no such curve, though single readings can be large or run the other way. Some of the results follow.
Hi! Could you answer with just one of these? active, inactive

The following compounds have reported results that may help.
State the result this test recorded for CN(CCn1cc(-c2nccn2C)nn1)S(C)(=O)=O .
inactive

State the result this test recorded for Oc1ccccc1-c1cc(-c2cccnc2)c2cncn2c1 .
active

State the result this test recorded for Cc1ccc(CN2CCc3nc(C4CC4)nc(-c4ccc(O)cc4)c3CC2)cc1 .
active

State the result this test recorded for O=C(Nc1nc2c(F)cccc2s1)c1ccc(S(=O)(=O)N2CCCc3ccccc32)cc1 .
inactive

State the result this test recorded for Cc1c(N/N=C(\C#N)C(=O)c2ccccc2)c(=O)n(-c2ccccc2)n1C .
active

Continuing:
State the result this test recorded for c1cncc(-c2nnc(-c3cccnc3)nn2)c1 .
inactive

State the result this test recorded for COc1ccc(-c2nc(C3CC3)nc3c2CCN(Cc2cccnc2)CC3)cc1 .
active

State the result this test recorded for Cc1nc(NCc2ccccc2)[nH]c(=O)c1CCC(C)C .
inactive

State the result this test recorded for COc1ccc2[nH]c(C[C@@H]3C[C@@H](C(C)C)[C@H](CNCc4ccccc4O)C=C3C)nc2n1 .
active

State the result this test recorded for CCSc1nc(CC(=O)NCc2ccc(S(N)(=O)=O)cc2)cs1 .
inactive

State the result this test recorded for O=C(CCc1nc2ccccc2[nH]1)N1C[C@@H](CO)[C@H](c2ccccn2)C1 .
inactive

State the result this test recorded for COc1ccccc1CN(C)C1CCCc2ccccc21 (configuration not stated) .
inactive

State the result this test recorded for COc1cc2nc(Nc3ccc(C)c(C)c3)nc(N)c2cc1OC .
active

State the result this test recorded for Cc1ccc(-c2nn(-c3ccccc3)c3[nH]c(=O)c(CNCc4ccccc4)cc23)cc1 .
active

State the result this test recorded for O=C(NCCCN1CCCC1)c1ccc2c(c1)N(S(=O)(=O)c1ccccc1F)CC2 .
active

State the result this test recorded for Oc1ccc(-c2nc(C3CC3)nc3c2CCN(CC2CCCCC2)CC3)cc1 .
active

State the result this test recorded for COc1ccc(NC(=O)c2c(C)oc3ccc(O)c(CN4CCCC(C)C4)c23)cc1Cl (configuration not stated) .
active

State the result this test recorded for O=C1CCC2(CCN1)CCN(C(=O)C1CCCCC1)CC2 .
inactive

State the result this test recorded for Cc1ccc(Sc2ccc(N3CCCC(C(=O)Nc4ccc(F)c(Cl)c4)C3)nn2)cc1 (configuration not stated) .
inactive

State the result this test recorded for COc1cccc(C(=O)N2CCc3nc(C4CC4)nc(-c4ccc(Cl)cc4)c3C2)c1 .
inactive

State the result this test recorded for CN(C)CCCn1cnc2c(c1=N)C(c1ccccc1)c1ccc3ccccc3c1O2 (configuration not stated) .
active

State the result this test recorded for COc1ccc(NC(=O)c2cc3n(n2)CC(c2ccc(Cl)cc2)OC3)cc1Cl (configuration not stated) .
inactive
